Reference source for all entries: the supplement of paper PMC3334620

- target-system: Yer184c (UniProt P39961)
- Sequence: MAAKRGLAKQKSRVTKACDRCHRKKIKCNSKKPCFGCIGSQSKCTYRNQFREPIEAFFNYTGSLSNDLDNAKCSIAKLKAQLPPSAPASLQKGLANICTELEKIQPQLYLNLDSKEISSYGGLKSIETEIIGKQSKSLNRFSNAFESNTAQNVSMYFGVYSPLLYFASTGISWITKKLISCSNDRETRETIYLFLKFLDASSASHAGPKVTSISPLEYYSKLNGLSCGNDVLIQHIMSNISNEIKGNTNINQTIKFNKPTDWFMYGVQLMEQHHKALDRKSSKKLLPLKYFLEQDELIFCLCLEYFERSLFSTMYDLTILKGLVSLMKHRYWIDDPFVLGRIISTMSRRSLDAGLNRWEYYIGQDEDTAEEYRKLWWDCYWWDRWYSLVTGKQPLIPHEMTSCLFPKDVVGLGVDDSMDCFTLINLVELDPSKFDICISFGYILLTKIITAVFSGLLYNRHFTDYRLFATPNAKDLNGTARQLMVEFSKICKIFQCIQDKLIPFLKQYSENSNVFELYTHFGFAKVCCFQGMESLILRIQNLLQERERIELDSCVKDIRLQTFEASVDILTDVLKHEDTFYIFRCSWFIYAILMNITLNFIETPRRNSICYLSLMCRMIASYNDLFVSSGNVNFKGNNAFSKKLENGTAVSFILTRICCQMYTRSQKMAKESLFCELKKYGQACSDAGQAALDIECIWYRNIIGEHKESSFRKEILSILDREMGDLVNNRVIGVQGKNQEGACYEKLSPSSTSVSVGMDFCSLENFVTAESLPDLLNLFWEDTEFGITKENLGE
- protocol-summary: PBM E-score (8-mer binding enrichment) (E-score (-0.5 to 0.5)); higher = stronger / more preferred TF binding
- condition-info: protein concentration: 100 nM; construct: GST-full length
Whole data set: some 33,000 sequences, median “E-score (-0.5 to 0.5)” near -0.016, cut for the highest 2% near 0.3. The full list was thinned out, with the highest values kept by preference.
Entries and their PBM E-score

residues: CCTTAAGG
PBM E-score: -0.0623
//
residues: AATCGGCC
PBM E-score: 0.146
//
residues: ACCCCGCG
PBM E-score: -0.119
//
residues: GACCATCC
PBM E-score: -0.237
//
residues: ATCGGATA
PBM E-score: 0.369
//
residues: ATCCGAAG
PBM E-score: 0.302
//
residues: GTTGCCCA
PBM E-score: -0.0158
//
residues: GAAGCGTA
PBM E-score: -0.0311
//
residues: GCTGCCGA
PBM E-score: 0.292
//
residues: AGCTCCAG
PBM E-score: -0.151
//
residues: ACCGCTCG
PBM E-score: -0.135
//
residues: GAGTCGTA
PBM E-score: -0.0554
//
residues: ATTTCTTA
PBM E-score: 0.216
//
residues: CAGCCGTA
PBM E-score: 0.142
//
residues: CGTGCTGC
PBM E-score: -0.0543
//
residues: CGGCAAGA
PBM E-score: 0.317
//
residues: ATCCGATC
PBM E-score: 0.235
//
residues: AATCGGCA
PBM E-score: 0.289
//
residues: AGAGTTTC
PBM E-score: -0.0656
//
residues: ATTGCCCA
PBM E-score: -0.102
//
residues: AATCGGGT
PBM E-score: 0.173
//
residues: CACCCGGA
PBM E-score: 0.237
//
residues: AAGCCGGA
PBM E-score: 0.411
//
residues: ATCCGACA
PBM E-score: 0.162
//
residues: GAGCCCGA
PBM E-score: 0.0143
//
residues: AGTTTCCG
PBM E-score: 0.392
//
residues: ATTGCCGG
PBM E-score: 0.348
//
residues: AGTGCCGC
PBM E-score: 0.123
//
residues: CAACATCG
PBM E-score: 0.0608
//
residues: GGGCAAGA
PBM E-score: 0.106
//
residues: CGGCATGA
PBM E-score: 0.313
//
residues: CCCGTTAA
PBM E-score: -0.0453
//
residues: GTCAACGA
PBM E-score: -0.0301
//
residues: GGTGCCGA
PBM E-score: 0.266
//
residues: TATCGGAA
PBM E-score: 0.351
//
residues: GAGCCGGA
PBM E-score: 0.328
//
residues: AGTTTCCA
PBM E-score: 0.111
//
residues: ATACGAAT
PBM E-score: 0.0699
//
residues: AGCCCGGA
PBM E-score: 0.314
//
residues: CTCCGAGA
PBM E-score: 0.247
//
residues: AATCGGAT
PBM E-score: 0.327
//
residues: CTATCGGA
PBM E-score: 0.319
//
residues: TCGGTTAA
PBM E-score: 0.333
//
residues: AGTTCGAG
PBM E-score: -0.00888
//
residues: AGTGCCGA
PBM E-score: 0.333
//
residues: CGCCCGGC
PBM E-score: 0.213
//
residues: ATATCGGA
PBM E-score: 0.277
//
residues: AATTTCCG
PBM E-score: 0.406
//
residues: GGGCATTA
PBM E-score: -0.199
//
residues: ACCGCATG
PBM E-score: 0.0226
//
residues: AGTGCCGG
PBM E-score: 0.337
//
residues: AATCGGAC
PBM E-score: 0.152
//
residues: CGCTGCAA
PBM E-score: 0.0112
//
residues: GGTCTTGA
PBM E-score: -0.0168
//
residues: ATAGATAT
PBM E-score: 0.161
//
residues: ATTTGGCA
PBM E-score: 0.0517
//
residues: AGGCATTA
PBM E-score: -0.187
//
residues: TACCCGGA
PBM E-score: 0.354
//
residues: CGTTCCGC
PBM E-score: 0.262
//
residues: GGACCCAC
PBM E-score: -0.182
//
residues: ATTTCTTC
PBM E-score: 0.315
//
residues: GGGCATGA
PBM E-score: -0.275
//
residues: CATTTCCG
PBM E-score: 0.3
//
residues: GTTTAAAC
PBM E-score: 0.32
//
residues: ATCCGATA
PBM E-score: 0.266
//
residues: GTCCTGCA
PBM E-score: -0.122
//
residues: AAGCCGTA
PBM E-score: 0.224
//
residues: GAGGCCCA
PBM E-score: -0.319
//
residues: CGCCCGGA
PBM E-score: 0.264
//
residues: ATCCGATG
PBM E-score: 0.327
//
residues: CGGCATGC
PBM E-score: 0.272
//
residues: AACTAGTG
PBM E-score: -0.0163
//
residues: CTCGGACA
PBM E-score: 0.306
//
residues: ATCCGAGA
PBM E-score: 0.252
//
residues: AGTTCCAG
PBM E-score: -0.101
//
residues: TGCAAAAA
PBM E-score: 0.00535
//
residues: CACCTCAG
PBM E-score: -0.236
//
residues: ACCTTTTC
PBM E-score: -0.076
//
residues: GCCCGCAC
PBM E-score: -0.0678
//
residues: GTATCGGA
PBM E-score: 0.208
//
residues: GTCGGACA
PBM E-score: 0.193
//
residues: AAACTCGA
PBM E-score: 0.0301
//
residues: AGGCAAGA
PBM E-score: -0.112
//
residues: AAGGTGTA
PBM E-score: -0.105
//
residues: GCGGTTAA
PBM E-score: 0.0539
//
residues: AGCCCGGG
PBM E-score: 0.268
//
residues: AATCGGCT
PBM E-score: 0.349
//
residues: ATCGGACA
PBM E-score: 0.303
//
residues: AGTTCCGC
PBM E-score: 0.305
//
residues: CATCGGAC
PBM E-score: 0.174
//
residues: CCGGTTAA
PBM E-score: 0.297
